Where do the numbers come from? From patent US20110098352A1.

biological target: UniProt:Q13258
Sequence (Q13258 whole entry): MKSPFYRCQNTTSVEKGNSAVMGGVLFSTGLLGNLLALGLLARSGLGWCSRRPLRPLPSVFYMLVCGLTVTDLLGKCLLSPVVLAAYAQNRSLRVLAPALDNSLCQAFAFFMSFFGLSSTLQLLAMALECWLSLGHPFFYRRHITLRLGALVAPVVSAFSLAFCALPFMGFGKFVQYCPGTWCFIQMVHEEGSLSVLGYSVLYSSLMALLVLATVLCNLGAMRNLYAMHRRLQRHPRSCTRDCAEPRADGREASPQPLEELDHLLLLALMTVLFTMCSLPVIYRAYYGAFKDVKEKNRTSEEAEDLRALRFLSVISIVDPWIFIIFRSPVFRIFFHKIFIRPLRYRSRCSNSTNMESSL
Quantity Measured: IC50

compound=CCNC(=O)N(CC)Cc1cc(C(F)(F)F)ccc1-c1cc(CC(=O)O)ccc1OC tested_on=UniProt:Q13258 measured="> 1000 nM"
compound=COc1ccc(CC(=O)O)cc1-c1ccc(C(F)(F)F)cc1CN(C(C)=O)C1CCC1 tested_on=UniProt:Q13258 measured="> 1000 nM"
compound=CCN(Cc1cc(F)ccc1-c1cc(CC(=O)O)ccc1OC)C(=O)OCc1ccccc1 tested_on=UniProt:Q13258 measured="> 1000 nM"

Exercise: Lab note: need IC50 for "CCN(Cc1cc(C(F)(F)F)ccc1-c1cc(CC(=O)O)ccc1OC)C(=O)NCc1ccc(Cl)c(Cl)c1" on UniProt:Q13258, anyone have it?
Key: > 1000 nM

Exercise: Lab note: need IC50 for "CCN(Cc1cc(C(F)(F)F)ccc1-c1cc(CC(=O)O)ccc1OC)C(=O)C1CC1" on UniProt:Q13258, anyone have it?
Key: > 1000 nM
